Just for reference, the supplement of paper PMC11061612 is where these values come from.

# Test system: LCLC-103H (Non-Small Cell Lung Carcinoma)
# PROTOCOL_TEXT: combination Emax (second highest fraction inhibited in the dose matrix, 72 h); higher = more inhibition; extreme values may be limits of the assay
READOUT: combination Emax
Number, no unit, nothing else.

// returns reported combination Emax for input CN(C)CCCOc1ccc(-c2ccc3ncc4c(c3c2)n(C2CCOCC2)c(=O)n4C)cn1 [AZD0156] + C=CCn1c(=O)c2cnc(Nc3ccc(N4CCN(C)CC4)cc3)nc2n1-c1cccc(C(C)(C)O)n1 [AZD1775] (first compound max 1 µM, partner max 1 µM) 0.519

// returns reported combination Emax for input C=CCn1c(=O)c2cnc(Nc3ccc(N4CCN(C)CC4)cc3)nc2n1-c1cccc(C(C)(C)O)n1 [AZD1775] + Nc1ccn([C@@H]2O[C@H](CO)[C@@H](O)C2(F)F)c(=O)n1 [Gemcitabine] (first compound max 1 µM, partner max 0.3 µM) 0.753

// returns reported combination Emax for input COc1nnc2ccc(N3CCC(c4ccc(OCCN5CCN(C)C(=O)[C@H]5C)cc4)CC3)nn12 [AZD5153] + C=CCn1c(=O)c2cnc(Nc3ccc(N4CCN(C)CC4)cc3)nc2n1-c1cccc(C(C)(C)O)n1 [AZD1775] (first compound max 1 µM, partner max 1 µM) 0.549

// returns reported combination Emax for input Cc1c2c(nn1C)CSCc1cc(n(C)n1)CSc1cc(c3ccccc3c1)OCCCc1c(C(=O)O)n(C)c3c-2c(Cl)ccc13 [AZD5991] + CN(C)CCCOc1ccc(-c2ccc3ncc4c(c3c2)n(C2CCOCC2)c(=O)n4C)cn1 [AZD0156] (first compound max 1 µM, 7x7, partner max 1 µM) 0.375
